Recorded below: pIC50, system GID4 (Uniprot ID: Q81VV7, residues 124-289) (Homo sapiens, UniProt Q8IVV7).
pIC50: −log10 of the molar value.

compound	value_measured
CC(C)Nc1nc(C(C)C)cc(N2CCNC(c3ccccc3Br)C2)n1 (single isomer, unassigned)	< 5.30
Nc1nc2c(c(N3CCNC(c4nnc[nH]4)C3)n1)CSC2 (stereo not shown)	5.30 to 6.30
CNc1nc(C(C)C)cc(N2CCNC(c3ccccc3Br)C2)n1 (single isomer, unassigned)	5.30 to 6.30

Q) Determine reported pIC50 for CC(C)c1cc(N2CCCC(c3cnc4ccccn34)C2)nc(NCCO)n1 (stereo not shown) ; test system: GID4 (Uniprot ID: Q81VV7, residues 124-289) (Homo sapiens, UniProt Q8IVV7).
A) < 5.30
